# Subject of test: Aedes aegypti neuropeptide Y-like receptor 7 (NPYLR7)
# Experiment summary: agonists of mosquito NPYLR7 receptor, confirmation, cell-based, Aedes aegypti, hit validation, mosquito biting behavior (AID 1259427);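 further: potency of agonists that activate the receptor and raise the calcium signal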
# Protocol conditions: HEK293T NPYLR7/Galpha15/GCaMP6s, calcium fluorescence
Calls of active or inactive are those of the source.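 How the source made its calls: active means EC50 at or below a set limit, with no effect in the paired counter-screen assay; inactive means the rest.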
Property label: EC50

Previously resolved entries follow.
Input line: I would be grateful if you could share the reported EC50 for "CCOc1cccc(C=C2Oc3cc(O)ccc3C2=O)c1OC" .
Output line: > 20 µM (inactive)

Input line: Moving on to the next compound: "COc1ccccc1N=c1oc2cc(O)ccc2cc1-c1nc2ccccc2[nH]1"
Output line: inactive

Input line: Moving on to the next compound: "Nc1ncnc2c1ncn2[C@@H]1O[C@H](CO)[C@@H](O)[C@H]1O"
Output line: inactive

Input line: Moving on to the next compound: "CC(C)(C)c1cnc(CSc2cnc(NC(=O)C3CCNCC3)s2)o1"
Output line: 14.9 µM

Input line: Moving on to the next compound: "CCN(CC)c1ccc(/C=C2/SC(=S)N(CC(=O)O)C2=O)cc1"
Output line: inactive

Further cases:
Input line: I would be grateful if you could share the reported EC50 for CCCCC(CC)CN=C(N)NC(N)=NCCCCCCN=C(N)NC(N)=NCC(CC)CCCC (centres undefined) .
Output line: 17.3 µM

Input line: Moving on to the next compound: CC1(C)CC(=O)C2C(=Nc3[nH]c(=S)[nH]c(=O)c3C2c2ccc3c(c2)OCO3)C1 (centres undefined)
Output line: > 20 µM (inactive)

Input line: Moving on to the next compound: "CCOC(=O)C1=C(C)NC(C)=C(C(=O)OCC)C1c1cc(Cl)ccc1OC(F)F"
Output line: > 20 µM (inactive)

Input line: Moving on to the next compound: "COc1ccc(OC)c(CCNc2nc3cnc(-c4ccc5c(c4)OCO5)cc3n2C)c1"
Output line: 8.34 µM

Input line: Moving on to the next compound: CC(=O)OC(C)C[N+](C)(C)C (centres undefined)
Output line: > 20 µM (inactive)
